Please go through the items and note down their No. (dead).
Test system: mouse
Experiment: Acute toxicity in the mouse, oral administration
Assay type: in vivo
Settings: oral, 1000 mg/kg/os, 8 treated
Description: Acute toxicity was evaluated in the mouse by administering the compounds orally at scalar doses to a maximum of 1000 mg/kg to evaluate the 50% lethal dose (LD50). The compounds were administered in carboxymethylcellulose (0.5%) in a volume of […] to male mice (Swiss stock) of average weight 20 g.
Please reply with the number alone, leaving off any unit.

Fill in: mouse No. (dead) for O=C(/C=C/c1cccnc1)Nc1nn[nH]n1 = 0

Reported mouse No. (dead) for item Cc1cccc(C(=O)Nc2nn[nH]n2)n1 [TA 57-07, reference compound] was 4

Summary: O=C(/C=C/c1ccncc1)Nc1nn[nH]n1 , mouse, No. (dead) = 0

Test item O=C(/C=C/c1c[nH]c2ccccc12)Nc1nn[nH]n1 ; mouse; reported No. (dead) was 0

# O=C(/C=C/c1cccs1)Nc1nn[nH]n1 with mouse: No. (dead) is 0

For O=C(/C=C/c1ccc[nH]1)Nc1nn[nH]n1 on mouse, measured No. (dead) was 0

----------
Test system: mouse
Assay: Acute toxicity in the mouse, oral administration
Type: in vivo
Settings: mouse, in vivo, po, 1000 mg/kg
value kind: No. (dead)
Just the number, please.

Sure, the documented No. (dead) for O=C(/C=C/c1ccco1)Nc1nn[nH]n1 is 2

# compound Cc1ccc(/C=C\C(=O)Nc2nn[nH]n2)o1 [VAL 47-073cis] ; its No. (dead) = 1

The value of No. (dead) measured for the compound Cc1ccc(/C=C/C(=O)Nc2nn[nH]n2)s1 turned out to be 0

Just so you know, measured No. (dead) for Cc1ccc(/C=C/C(=O)Nc2nn[nH]n2)o1 came out at 0

// Cc1ccc(/C=C\C(=O)Nc2nn[nH]n2)s1 [VAL 47-005cis] : No. (dead) value = 0

Entry O=C(/C=C/c1ccccn1)Nc1nn[nH]n1 , No. (dead) reported as 0

----------
Assay: Acute toxicity in the mouse, oral administration
Format: in vivo
Conditions: mouse, in vivo, po, 1000 mg/kg, oral, 1000 mg/kg/os; read-out: mortality (%EAD)
Method: Acute toxicity was evaluated in the mouse by administering the compounds orally at scalar doses to a maximum of 1000 mg/kg to evaluate the 50% lethal dose (LD50). The compounds were administered in carboxymethylcellulose (0.5%) in a volume of […] to male mice (Swiss stock) of average weight 20 g.
value kind: mortality (%)
Reply with just the number (in %).

The recorded mortality for entry Cc1ccc(/C=C\C(=O)Nc2nn[nH]n2)o1 [VAL 47-073cis] equals 12.5

Documented mortality of O=C(/C=C/c1ccnc2ccccc12)Nc1nn[nH]n1 : 12.5

// sample O=C(/C=C/c1c[nH]c2ccccc12)Nc1nn[nH]n1 , its mortality was 0

Reported mortality ( O=C(/C=C/c1cccs1)Nc1nn[nH]n1 ) = 0

O=C(/C=C/c1ccccn1)Nc1nn[nH]n1 yielded mortality of 0

Consider O=C(/C=C/c1ccc(Br)s1)Nc1nn[nH]n1 . Its measured mortality is 0

Entry Cc1ccc(/C=C/C(=O)Nc2nn[nH]n2)o1 — recorded mortality = 0

Documented mortality of O=C(/C=C/c1ccco1)Nc1nn[nH]n1 : 25

Sample O=C(/C=C/c1cccnc1)Nc1nn[nH]n1 ; mortality observed: 0

Looking up O=C(/C=C/c1ccc[nH]1)Nc1nn[nH]n1 , I see its mortality listed as 0

The measured mortality associated with Cc1ccc(/C=C/C(=O)Nc2nn[nH]n2)s1 reads 0

----------
Assay: Acute toxicity in the mouse, oral administration
Type: in vivo
Conditions: mouse, in vivo, po, 1000 mg/kg, oral, 1000 mg/kg/os; read-out: mortality (%EAD)
value kind: mortality (%)
Report the figure in % without appending any unit label.

Memo: COc1ccc(/C=C/C(=O)Nc2ccccc2C(=O)O)cc1OC [Tranilast, reference compound] , reported mortality: 87.5

So for O=C(/C=C/c1ccsc1)Nc1nn[nH]n1 , the logged mortality turned out to be 25

Reported mortality of Cc1ccc(/C=C\C(=O)Nc2nn[nH]n2)s1 [VAL 47-005cis] : 0

mortality reading for O=C(/C=C/c1ccncc1)Nc1nn[nH]n1 : 0

Query Cc1cccc(C(=O)Nc2nn[nH]n2)n1 [TA 57-07, reference compound] yields mortality of 50

----------
Tested on: passive cutaneous anaphylaxis
Test: PCA test on the rat, intravenous administration just before challenge with antigen
Assay type: in vivo, rat (male Sprague Dawley)
Conditions: Rattus norvegicus, iv, 3 mg/kg, immediately before challenge
Binary classification by inhibition in vivo at 3 mg/kg, with 50% as an inclusive lower bound for condition met; all other cases are condition not met.

Qu. Test whether the compound Cc1ccc(/C=C/C(=O)Nc2nn[nH]n2)s1 records inhibition in vivo at 3 mg/kg of 50% or higher.
Ans. condition not met

Qu. Is the recorded value of inhibition in vivo at 3 mg/kg equal to or greater than 50% for this compound? O=C(/C=C/c1ccccn1)Nc1nn[nH]n1
Ans. condition met

Qu. hey, is inhibition in vivo at 3 mg/kg for this one >= 50%? Cc1ccc(/C=C\C(=O)Nc2nn[nH]n2)s1 [VAL 47-005cis]
Ans. condition met

Qu. Does the reported inhibition in vivo at 3 mg/kg for O=C(/C=C/c1ccncc1)Nc1nn[nH]n1 fall at or above the 50% mark?
Ans. condition met

Qu. Quick check, inhibition in vivo at 3 mg/kg >= 50%? O=C(/C=C/c1ccco1)Nc1nn[nH]n1
Ans. condition not met

Qu. Kindly determine if inhibition in vivo at 3 mg/kg recorded for O=C(/C=C/c1cccnc1)Nc1nn[nH]n1 is above or exactly 50%.
Ans. condition met

Qu. # check: inhibition in vivo at 3 mg/kg of Cc1ccc(/C=C\C(=O)Nc2nn[nH]n2)o1 [VAL 47-073cis] is greater than or equal to 50%
Ans. condition not met

Qu. Has O=C(/C=C/c1ccc[nH]1)Nc1nn[nH]n1 a recorded inhibition in vivo at 3 mg/kg greater than or equal to 50%?
Ans. condition not met

Qu. Threshold query (inhibition in vivo at 3 mg/kg >= 50%) on O=C(/C=C/c1ccc(Br)s1)Nc1nn[nH]n1
Ans. condition not met

Qu. Dear colleague, could you confirm whether O=C(/C=C/c1cccs1)Nc1nn[nH]n1 has inhibition in vivo at 3 mg/kg at or above 50%?
Ans. condition met

Qu. Entry O=C(/C=C/c1c[nH]c2ccccc12)Nc1nn[nH]n1 : is its inhibition in vivo at 3 mg/kg no less than 50%?
Ans. condition met

----------
Tested on: passive cutaneous anaphylaxis
Experiment: PCA test on the rat, time response curve after oral administration
Format: in vivo, rat (male Sprague Dawley)
Details: Rattus norvegicus, 5 min; oral, 30 mg/kg/os, 5 minutes before challenge; read-out: inhibition %
value kind: inhibition in vivo at 30 mg/kg
State the value, then name its unit.

Value of measured inhibition in vivo at 30 mg/kg for the entry O=C(/C=C/c1cccnc1)Nc1nn[nH]n1 [VAL 47-017] : 45%

Given item O=C(/C=C/c1ccsc1)Nc1nn[nH]n1 [VAL 47-034] , the value recorded as its inhibition in vivo at 30 mg/kg is 64.5%

response.value for O=C(/C=C/c1ccncc1)Nc1nn[nH]n1 [VAL 47-042] (field: inhibition in vivo at 30 mg/kg) = 6.3%

Value of inhibition in vivo at 30 mg/kg reported for the compound O=C(/C=C/c1ccc(Br)s1)Nc1nn[nH]n1 [VAL 47-008] is 37.7%

For this compound ( O=C(/C=C/c1ccc[nH]1)Nc1nn[nH]n1 [VAL 47-078] ), measured inhibition in vivo at 30 mg/kg is 31.4%

The recorded inhibition in vivo at 30 mg/kg for Cc1ccc(/C=C/C(=O)Nc2nn[nH]n2)s1 [VAL 47-005] is 75.5%

Recorded inhibition in vivo at 30 mg/kg (compound O=C(/C=C/c1cccs1)Nc1nn[nH]n1 [VAL 47-024] ): 43.5%

The compound listed as O=C(/C=C/c1c[nH]c2ccccc12)Nc1nn[nH]n1 [VAL 47-022] shows inhibition in vivo at 30 mg/kg equal to 62.2%

Value of measured inhibition in vivo at 30 mg/kg for the entry O=C(/C=C/c1ccco1)Nc1nn[nH]n1 [VAL 47-010] : 51.4%

----------
Test system: mouse
Assay: Acute toxicity in the mouse, oral administration
Type: in vivo
Conditions: oral, 1000 mg/kg/os, 8 treated
value kind: No. (dead)
Returns: the value as a bare number; no unit string appended.

Field No. (dead) (system: mouse) for entry Cc1ccc(/C=C/C(=O)Nc2nn[nH]n2)s1 [VAL 47-005Na] = 0

Value sought: No. (dead), system mouse, item COc1ccc(/C=C/C(=O)Nc2ccccc2C(=O)O)cc1OC [Tranilast, reference compound] . Result: 7

Noted No. (dead) for O=C(/C=C/c1ccc(Br)s1)Nc1nn[nH]n1 [VAL 47-008] , tested on mouse: 0

Reported No. (dead) (mouse) for entry O=C(/C=C/c1ccsc1)Nc1nn[nH]n1 [VAL 47-034] is 2

Observed No. (dead) on mouse, entry O=C(/C=C/c1ccnc2ccccc12)Nc1nn[nH]n1 [VAL 47-067] , equals 1

Cited source for all entries: patent US5039684A
